Experiment: Multiple-dose pharmacokinetics, plasma LNG concentrations on treatment day 55 (±1)
Assay type: in vivo, human
Conditions: female, human, plasma, po, 0.095 mg per day, 0.095 mg per day oral over 55 ± 1 consecutive days, entire treatment group; read-out: Cmax, ss, Geometric Mean
measured.property: Cmax (ng/mL)
# number only, unit ng/mL dropped from output

Recorded result, C#C[C@]1(O)CC[C@H]2[C@@H]3CCC4=CC(=O)CC[C@@H]4[C@H]3CC[C@@]21CC (racemic) , Cmax: 1.55

---

Experiment: Multiple-dose pharmacokinetics, plasma LNG concentrations on treatment day 55 (±1)
Format: in vivo, human
Conditions: female, human, plasma, po, 0.135 mg per day, 0.135 mg per day oral over 55 ± 1 consecutive days, entire treatment group; read-out: AUC0-24, ss, Median
measured.property: AUC(0-t) (ng·h/mL)
# number only, unit ng·h/mL dropped from output

Recorded result, C#C[C@]1(O)CC[C@H]2[C@@H]3CCC4=CC(=O)CC[C@@H]4[C@H]3CC[C@@]21CC (racemic) , AUC(0-t): 16.9

---

Test: Multiple-dose pharmacokinetics, plasma LNG concentrations on treatment day 55 (±1)
Assay type: in vivo, human
Conditions: female, human, plasma, po, 0.095 mg per day, 0.095 mg per day oral over 55 ± 1 consecutive days, entire treatment group; read-out: AUC0-24, ss, Median
measured.property: AUC(0-t) (ng·h/mL)
# number only, unit ng·h/mL dropped from output

Recorded result, C#C[C@]1(O)CC[C@H]2[C@@H]3CCC4=CC(=O)CC[C@@H]4[C@H]3CC[C@@]21CC (racemic) , AUC(0-t): 11.8

---

Assay: Multiple-dose pharmacokinetics, plasma LNG concentrations on treatment day 55 (±1)
Format: in vivo, human
Settings: female, human, plasma, po, 0.095 mg per day, 0.095 mg per day oral over 55 ± 1 consecutive days, entire treatment group; read-out: AUC0-24, ss, Geometric Mean
measured.property: AUC(0-t) (ng·h/mL)
# number only, unit ng·h/mL dropped from output

Recorded result, C#C[C@]1(O)CC[C@H]2[C@@H]3CCC4=CC(=O)CC[C@@H]4[C@H]3CC[C@@]21CC (racemic) , AUC(0-t): 12.4

---

Assay: Multiple-dose pharmacokinetics, plasma LNG concentrations on treatment day 55 (±1)
Assay type: in vivo, human
Conditions: female, human, plasma, po, 0.095 mg per day, 0.095 mg per day oral over 55 ± 1 consecutive days, subgroup BMI < 30 kg/m2; read-out: AUC0-24, ss, Geometric mean
measured.property: AUC(0-t) (ng·h/mL)
# number only, unit ng·h/mL dropped from output

Recorded result, C#C[C@]1(O)CC[C@H]2[C@@H]3CCC4=CC(=O)CC[C@@H]4[C@H]3CC[C@@]21CC (racemic) [LNG, levonorgestrel] , AUC(0-t): 14

---

Experiment: Multiple-dose pharmacokinetics, plasma LNG concentrations on treatment day 55 (±1)
Assay type: in vivo, human
Conditions: female, human, plasma, po, 0.095 mg per day, 0.095 mg per day oral over 55 ± 1 consecutive days, subgroup BMI ≥ 30 kg/m^2; read-out: AUC0-24, ss, Geometric mean
measured.property: AUC(0-t) (ng·h/mL)
# number only, unit ng·h/mL dropped from output

Recorded result, C#C[C@]1(O)CC[C@H]2[C@@H]3CCC4=CC(=O)CC[C@@H]4[C@H]3CC[C@@]21CC (racemic) [LNG, levonorgestrel] , AUC(0-t): 9.2

---

Assay: Multiple-dose pharmacokinetics, plasma LNG concentrations on treatment day 55 (±1)
Type: in vivo, human
Conditions: female, human, plasma, po, 0.095 mg per day, 0.095 mg per day oral over 55 ± 1 consecutive days, subgroup BMI ≥ 30 kg/m^2; read-out: Cmax, ss, Geometric mean
measured.property: Cmax (ng/mL)
# number only, unit ng/mL dropped from output

Recorded result, C#C[C@]1(O)CC[C@H]2[C@@H]3CCC4=CC(=O)CC[C@@H]4[C@H]3CC[C@@]21CC (racemic) , Cmax: 1.05

---

Test: Multiple-dose pharmacokinetics, plasma LNG concentrations on treatment day 55 (±1)
Assay type: in vivo, human
Settings: female, human, plasma, po, 0.115 mg per day, 0.115 mg per day oral over 55 ± 1 consecutive days, entire treatment group; read-out: Cmax, ss, Geometric Mean
measured.property: Cmax (ng/mL)
# number only, unit ng/mL dropped from output

Recorded result, C#C[C@]1(O)CC[C@H]2[C@@H]3CCC4=CC(=O)CC[C@@H]4[C@H]3CC[C@@]21CC (racemic) [LNG, levonorgestrel] , Cmax: 1.67

---

Experiment: Multiple-dose pharmacokinetics, plasma LNG concentrations on treatment day 55 (±1)
Assay type: in vivo, human
Conditions: female, human, plasma, po, 0.115 mg per day, 0.115 mg per day oral over 55 ± 1 consecutive days, entire treatment group; read-out: AUC0-24, ss, Geometric Mean
measured.property: AUC(0-t)
Form entry: enter the amount, then its unit.

Recorded result, C#C[C@]1(O)CC[C@H]2[C@@H]3CCC4=CC(=O)CC[C@@H]4[C@H]3CC[C@@]21CC (racemic) , AUC(0-t): 13.8 ng·h/mL

---

Experiment: Multiple-dose pharmacokinetics, plasma LNG concentrations on treatment day 55 (±1)
Format: in vivo, human
Details: female, human, plasma, po, 0.135 mg per day, 0.135 mg per day oral over 55 ± 1 consecutive days, subgroup BMI ≥ 30 kg/m^2; read-out: Cmax, ss, Geometric mean
Method: Serum SHBG concentrations were determined after ovulation in the pre-treatment cycle, on treatment day 55 (±1) and at the end-of-study examination. […] Plasma LNG concentrations were determined by a validated liquid chromatography hyphenated with tandem mass spectrometry method (ACC, Leidersbach, Germany). […] Descriptive statistics for each treatment group and for subgroups with BMI<30 and ≥30 kg/m^2 were calculated.
measured.property: Cmax (ng/mL)
# number only, unit ng/mL dropped from output

Recorded result, C#C[C@]1(O)CC[C@H]2[C@@H]3CCC4=CC(=O)CC[C@@H]4[C@H]3CC[C@@]21CC (racemic) , Cmax: 1.52

---

Assay: Multiple-dose pharmacokinetics, plasma LNG concentrations on treatment day 55 (±1)
Format: in vivo, human
Conditions: female, human, plasma, po, 0.115 mg per day, 0.115 mg per day oral over 55 ± 1 consecutive days, subgroup BMI < 30 kg/m2; read-out: Cmax, ss, Geometric mean
measured.property: Cmax (ng/mL)
# number only, unit ng/mL dropped from output

Recorded result, C#C[C@]1(O)CC[C@H]2[C@@H]3CCC4=CC(=O)CC[C@@H]4[C@H]3CC[C@@]21CC (racemic) , Cmax: 2.03

---

Experiment: Multiple-dose pharmacokinetics, plasma LNG concentrations on treatment day 55 (±1)
Assay type: in vivo, human
Conditions: female, human, plasma, po, 0.135 mg per day, 0.135 mg per day oral over 55 ± 1 consecutive days, entire treatment group; read-out: Cmax, ss, Median
measured.property: Cmax (ng/mL)
# number only, unit ng/mL dropped from output

Recorded result, C#C[C@]1(O)CC[C@H]2[C@@H]3CCC4=CC(=O)CC[C@@H]4[C@H]3CC[C@@]21CC (racemic) , Cmax: 1.93

---

Experiment: Multiple-dose pharmacokinetics, plasma LNG concentrations on treatment day 55 (±1)
Type: in vivo, human
Details: female, human, plasma, po, 0.135 mg per day, 0.135 mg per day oral over 55 ± 1 consecutive days, entire treatment group; read-out: AUC0-24, ss, Geometric Mean
measured.property: AUC(0-t) (ng·h/mL)
# number only, unit ng·h/mL dropped from output

Recorded result, C#C[C@]1(O)CC[C@H]2[C@@H]3CCC4=CC(=O)CC[C@@H]4[C@H]3CC[C@@]21CC (racemic) , AUC(0-t): 16.8
